SYSTEM_NAME: homoserine kinase (CglThrB-WT) (Corynebacterium glutamicum)
Sequence (P07128 2-309): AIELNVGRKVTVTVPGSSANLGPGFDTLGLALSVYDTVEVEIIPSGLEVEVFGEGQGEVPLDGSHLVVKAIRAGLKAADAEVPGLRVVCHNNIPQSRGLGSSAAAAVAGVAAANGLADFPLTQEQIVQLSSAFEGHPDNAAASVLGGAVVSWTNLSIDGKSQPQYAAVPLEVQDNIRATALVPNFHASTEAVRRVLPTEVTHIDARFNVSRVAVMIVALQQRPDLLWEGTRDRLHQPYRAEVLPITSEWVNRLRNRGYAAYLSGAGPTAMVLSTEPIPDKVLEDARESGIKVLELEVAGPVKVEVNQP
ASSAY_METHOD_TEXT: steady-state enzyme kinetics, ADP colorimetric assay
Format: biochemical
READOUT: pKi
API: returns pKi as number; meaning -log10 of concentration in mol/L.

pKi in this record for C[C@@H](O)[C@H](N)C(=O)O : 2.33

---

SYSTEM_NAME: homoserine kinase (CglThrB-A20G) (Corynebacterium glutamicum, UniProt P07128, A20G)
ASSAY_METHOD_TEXT: steady-state enzyme kinetics, ADP colorimetric assay
READOUT: Ki

Ki in this record for C[C@@H](O)[C@H](N)C(=O)O [L-threonine] : 25.2 mM

This collection of values is drawn from paper PMC6045374.
